# Test system: IgG
# assay overview: Coating durability using water washes, IgG binding by colloidal gold
# experimental conditions: dI H2O wash 1 time, 24 hr, 37° C.
Please respond with reported Absorbance (550 nm) 1 Time 24 hr 37° C. for every item in the list.
Answers are plain numbers.

SORBITOL MONO-PALMITATE; 0.00
SORBITOL MONO-OLEATE; 0.00
PEO(20) SORBITOL MONO-LAURATE; 0.10
PEO(4) SORBITOL MONO-STEARATE; 0.10
SORBITOL MONO-STEARATE; 0.00

Please state Absorbance (550 nm) 1 Time 24 hr 37° C. for every substance in the list that follows.
1. SORBITOL MONO-LAURATE
2. PEO(4) SORBITOL MONO-LAURATE
3. SORBITOL TRI-OLEATE
4. PEO(20) SORBITOL TRI-STEARATE

0.00
0.10
0.00
0.10

---

Please respond with reported Tight IgG binding, Sterilized for every item in the list.
# Test system: ^125I-IgG (goat anti-mouse)
# assay overview: Radiometric determination of IgG binding to surfactant-coated polystyrene microtiter wells
# experimental conditions: gamma sterilized (1.5 Mrad); after two hours in PBS-Tween (0.05%)
Answers are plain numbers, in ng/cm^2.

PEO(20) SORBITOL TRI-STEARATE; 4
PEO(4) SORBITOL MONO-STEARATE; 80
PEO(4) SORBITOL MONO-LAURATE; 3

I am curious: what Tight IgG binding, Sterilized value has been reported for SORBITOL MONO-OLEATE ? 5

---

# Tested on: IgG
# assay overview: Coating durability using water washes, IgG binding by colloidal gold
# experimental conditions: dI H2O wash 1 time, 1 hr, 23° C.
Please respond with reported Absorbance (550 nm) 1 Time 1 hr 23° C. for every item in the list.
One number for each entry.

Below: 5 substances and their reported Absorbance (550 nm) 1 Time 1 hr 23° C..
SORBITOL MONO-PALMITATE; 0.00
PEO(20) SORBITOL TRI-STEARATE; 0.00
SORBITOL MONO-LAURATE; 0.00
PEO(4) SORBITOL MONO-LAURATE; 0.09
PEO(20) SORBITOL MONO-LAURATE; 0.02

Please state Absorbance (550 nm) 1 Time 1 hr 23° C. for every substance in the list that follows.
1. SORBITOL MONO-OLEATE
2. SORBITOL TRI-OLEATE
3. SORBITOL MONO-STEARATE
4. PEO(4) SORBITOL MONO-STEARATE

0.00
0.00
0.00
0.00

---

Please respond with reported Absorbance (550 nm) pH = 4.6 for every item in the list.
# Tested on: BSA protein (Bovine Serum Albumin, Fraction V)
# assay overview: BSA binding to coated polystyrene 24-well plates at different pH, colloidal gold stain
# experimental conditions: BSA 10 μg/ml in 0.10 M acetate buffer
Answers are plain numbers.

Below: 2 substances and their reported Absorbance (550 nm) pH = 4.6.
SORBITOL MONO-STEARATE; 0.00
SORBITOL MONO-PALMITATE; 0.00

Please state Absorbance (550 nm) pH = 4.6 for every substance in the list that follows.
1. PEO(4) SORBITOL MONO-STEARATE
2. PEO(20) SORBITOL TRI-STEARATE
3. SORBITOL MONO-LAURATE
4. SORBITOL MONO-OLEATE

[0.00, 0.00, 0.00, 0.00]

Entry source: patent US7776572B2
